Cited source: ChEMBL document CHEMBL1926550

In this section we review reported MIC values for a set of compounds.
System: Escherichia coli
Assay: Antibacterial activity against Escherichia coli 10-3 after 18 hrs by two fold serial dilution method
Assay type: functional
Conditions: 10-3, 18 h

# compound, unit-abbreviation, bound-operator, MIC
records = [
    ("NCC1CN(c2nc3c(cc2F)c(=O)c(C(=O)O)cn3-c2ccc(F)cc2F)C/C1=N\\OC(F)F (racemic)", "µg/mL", "=", 8),
    ("NCC1CN(c2ccc3c(=O)c(C(=O)O)cn(C4CC4)c3n2)C/C1=N\\OCF (racemic)", "µg/mL", ">", 128),
    ("COc1c(N2C[C@@H]3CCCN[C@@H]3C2)c(F)cc2c(=O)c(C(=O)O)cn(C3CC3)c12 [MOXIFLOXACIN]", "µg/mL", "=", 4),
    ("CC1(CN)CN(c2nc3c(cc2F)c(=O)c(C(=O)O)cn3C2CC2)C/C1=N\\OCF (racemic)", "µg/mL", "=", 32),
    ("NCC1CN(c2nc3c(cc2F)c(=O)c(C(=O)O)cn3-c2ccc(F)cc2F)C/C1=N\\OCF (racemic)", "µg/mL", "=", 32),
    ("CO/N=C1\\CN(c2nc3c(cc2F)c(=O)c(C(=O)O)cn3C2CC2)CC1CN (centres undefined) [GEMIFLOXACIN]", "µg/mL", "=", 4),
    ("CC1(CN)CN(c2ccc3c(=O)c(C(=O)O)cn(C4CC4)c3n2)C/C1=N\\OCF (racemic)", "µg/mL", "=", 128),
    ("NCC1CN(c2nc3c(cc2F)c(=O)c(C(=O)O)cn3C2CC2)C/C1=N\\OCF (racemic)", "µg/mL", "=", 16),
    ("NCC1CN(c2nc3c(cc2F)c(=O)c(C(=O)O)cn3C2CC2)C/C1=N\\OC(F)F (racemic)", "µg/mL", "=", 8),
]
